Target: UniProt:O14936
Sequence (O14936 whole entry): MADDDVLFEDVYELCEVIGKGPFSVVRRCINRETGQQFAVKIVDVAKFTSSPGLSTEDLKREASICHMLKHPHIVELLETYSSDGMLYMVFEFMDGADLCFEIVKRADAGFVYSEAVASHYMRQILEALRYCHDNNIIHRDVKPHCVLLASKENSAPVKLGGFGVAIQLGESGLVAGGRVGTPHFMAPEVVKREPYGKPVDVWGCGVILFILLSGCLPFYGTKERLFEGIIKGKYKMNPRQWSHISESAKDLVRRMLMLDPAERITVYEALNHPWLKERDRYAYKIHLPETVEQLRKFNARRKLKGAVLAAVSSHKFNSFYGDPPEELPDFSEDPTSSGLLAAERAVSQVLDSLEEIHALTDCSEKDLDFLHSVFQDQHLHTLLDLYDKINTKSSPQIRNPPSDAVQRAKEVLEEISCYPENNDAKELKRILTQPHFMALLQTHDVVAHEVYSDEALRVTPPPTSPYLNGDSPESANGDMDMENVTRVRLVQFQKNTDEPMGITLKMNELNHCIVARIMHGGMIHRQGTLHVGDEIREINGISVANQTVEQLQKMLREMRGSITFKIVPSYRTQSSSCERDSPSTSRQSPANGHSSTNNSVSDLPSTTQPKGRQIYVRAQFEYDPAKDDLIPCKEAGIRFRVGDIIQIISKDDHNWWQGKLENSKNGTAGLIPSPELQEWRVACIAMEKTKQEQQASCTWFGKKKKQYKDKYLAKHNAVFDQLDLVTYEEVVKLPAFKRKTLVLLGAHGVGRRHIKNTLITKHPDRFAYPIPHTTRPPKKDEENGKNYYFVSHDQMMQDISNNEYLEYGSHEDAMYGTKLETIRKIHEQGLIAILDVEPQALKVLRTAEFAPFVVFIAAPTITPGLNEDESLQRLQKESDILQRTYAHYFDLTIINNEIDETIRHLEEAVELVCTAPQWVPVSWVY
Assay: KINATIV assay
Format: cell-based
Conditions: 1 μM, 90 minutes, BCWM.1 cells
property label: % change of MS signal compared to control sample (%)

>>> df
                                   compound   system_tested  reported_value
0  C=CC(=O)N1CC[C@@H](Nc2nccc(Nc3ncc(C(=O)Nc4c(C)cccc4C)s3)n2)C1  UniProt:O14936            23.2
1  C=CC(=O)N1CCC(CNc2nccc(Nc3ncc(C(=O)Nc4c(C)cccc4C)s3)n2)C1 (racemic)  UniProt:O14936            43.0
2  C=CC(=O)N1CCC(Cn2ccc(Nc3ncc(C(=O)Nc4c(C)cccc4Cl)s3)n2)C1 (stereo not shown)  UniProt:O14936            29.4
3  C=CC(=O)N1CCCCC(Nc2nccc(Nc3ncc(C(=O)Nc4c(C)cccc4C)s3)n2)C1 (stereo not shown)  UniProt:O14936            37.7

====

Tested on: Ramos
Assay: CellTiter-Glo Luminescent cell viability assay
Format: cell-based
Details: cell survival, 72 hours
pEC50: −log10 of the molar value.
# key: entry, value: pEC50
property label: pEC50

                                   molecule  system_tested  reported_value
0  CCC(=O)N1CC[C@H](Nc2nccc(Nc3ncc(C(=O)Nc4c(C)cccc4C)s3)n2)C1          Ramos          < 4.70
1  C=CC(=O)N1CCC(n2cc(Nc3ncc(C(=O)Nc4c(C)cccc4Cl)s3)cn2)CC1          Ramos          < 4.70
2  C=CC(=O)N1CC[C@H](Nc2nc(CN3CCOCC3)cc(Nc3ncc(C(=O)Nc4c(C)cccc4C)s3)n2)C1          Ramos          < 4.70

====

System: MWCL-1
Assay: CellTiter-Glo Luminescent cell viability assay
Format: cell-based
Details: cell survival, 72 hours
# class assignment by measured EC50: A (below 90 nM), B (90 nM to below 200 nM), C (200 nM or more)

>>> print(df.to_string())
                                    compound  class_label
 0  Cn1cc(Nc2nc3ccc(Oc4ccccc4)nc3s2)cn1 [III-7]            C
 1  C=CC(=O)N1CC[C@H](Nc2nccc(Nc3nc4ccc(Oc5ccccc5)nc4s3)n2)C1 [III-1]            C
 2  CCC(=O)N1CC[C@H](Nc2nccc(Nc3ncc(C(=O)Nc4c(C)cccc4C)s3)n2)C1 [Compound I-9]            A
 3  C=CC(=O)N1CC[C@H](Nc2nccc(Nc3ncc(C(=O)Nc4c(C)cccc4Cl)s3)n2)C1 [Compound I-10]            B
 4  C=CC(=O)N1CC[C@H](Nc2nc(CN3CCOCC3)cc(Nc3ncc(C(=O)Nc4c(C)cccc4C)s3)n2)C1 [Compound I-2]            A
 5  C=CC(=O)N1CCCCC(Nc2nccc(Nc3ncc(C(=O)Nc4c(C)cccc4C)s3)n2)C1 (stereo not drawn) [Compound I-7]            A
 6  c1ccc(Oc2ccc3nc(Nc4cnn(C5CCOCC5)c4)sc3n2)cc1 [III-8]            C
 7  C=CC(=O)N1CCC(Cn2ccc(Nc3ncc(C(=O)Nc4c(C)cccc4Cl)s3)n2)C1 (stereo not drawn) [II-1]            B
 8  c1ccc(Oc2ccc3nc(Nc4cnn(C5CCNCC5)c4)sc3n2)cc1 [III-9]            C
 9  C=CC(=O)N1CCCCC(Nc2nccc(Nc3ncc(C(=O)Nc4c(C)cccc4Cl)s3)n2)C1 (stereo not drawn) [Compound I-11]            C
10  C=CC(=O)N1CCC(n2cc(Nc3ncc(C(=O)Nc4c(C)cccc4Cl)s3)cn2)CC1 [II-3]            C
11  C=CC(=O)N1CCC[C@@H](Nc2nccc(Nc3ncc(C(=O)Nc4c(C)cccc4C)s3)n2)C1 [Compound I-6]            B
